Tested on: Mycobacterium tuberculosis
measurement notes: Antimycobacterial activity against isoniazid and rifampicin resistant Mycobacterium tuberculosis A8 ATCC 35822 assessed as reduction in bacterial growth after 28 days by serial dilution method
Assay type: functional
setup conditions: A8 ATCC 35822, 672 h, time 28 day
*1 amine or outer side, *2 acyl side, *3 side chain or, on linkers, in order; H or OH if unused. Where a SMILES comes first, the peptide text is derived from it. [ ]: non-standard residue; d: D form. The star is where a group is joined. X1 = C/C(=N\OCC(=O)[*:2])c1ccc(N[*:1])cc1; Benzoyl(5-Br-2-OH) = O=C(c1cc(Br)ccc1O)*
Measured MIC values are reported for all entries that follow.
Provide only the numeric value, understood in µM.

>  <compound>
C/C(=N\OCC(=O)N[C@H](C(=O)N[C@@H](CCCCN)C(=O)N1CCC[C@H]1C(=O)N1CCC[C@H]1C(=O)N[C@@H](CCCNC(=N)N)C(=O)O)[C@@H](C)O)c1ccc(NC(=O)c2cc(Br)ccc2O)cc1

>  <readout unit>
µM

>  <MIC>
101

$$$$
>  <compound>
C/C(=N\OCC(=O)NCC(=O)N[C@@H](Cc1ccccc1)C(=O)N[C@@H](CC(C)C)C(=O)NCC(=O)N[C@H](C(=O)N[C@@H](CCCCN)C(=O)N1CCC[C@H]1C(=O)N[C@@H](CCCCN)C(=O)NCC(N)=O)[C@@H](C)O)c1ccc(NC(=O)c2cc(Br)ccc2O)cc1 ({Benzoyl(5-Br-2-OH)}-[X1]GFLGTKPKG-NH2)

>  <readout unit>
µM

>  <MIC>
77.4

$$$$
>  <compound>
C/C(=N\OCC(=O)N[C@H](C(=O)N[C@@H](CCCCN)C(=O)N1CCC[C@H]1C(=O)N[C@@H](CCCCN)C(=O)NCC(N)=O)[C@@H](C)O)c1ccc(NC(=O)c2cc(Br)ccc2O)cc1 ({Benzoyl(5-Br-2-OH)}-[X1]TKPKG-NH2)

>  <readout unit>
µM

>  <MIC>
109

$$$$
>  <compound>
O=C(Nc1ccc(C(F)(F)F)cc1)c1cc(Cl)ccc1O

>  <readout unit>
µM

>  <MIC>
1.6

$$$$
>  <compound>
CC(=O)c1ccc(NC(=O)c2cc(Br)ccc2O)cc1

>  <readout unit>
µM

>  <MIC>
15

$$$$

Request: If you can, please state the reported MIC value of CC(=O)c1ccc(NC(=O)c2cc(Cl)ccc2O)cc1 .
Result: 17.3

Request: If you can, please state the reported MIC value of C/C(=N\OCC(=O)NCC(=O)N[C@@H](Cc1ccccc1)C(=O)N[C@@H](CC(C)C)C(=O)NCC(=O)N[C@H](C(=O)N[C@@H](CCCCN)C(=O)N1CCC[C@H]1C(=O)N1CCC[C@H]1C(=O)N[C@@H](CCCNC(=N)N)C(=O)O)[C@@H](C)O)c1ccc(NC(=O)c2cc(Br)ccc2O)cc1 .
Result: 73.5

Request: If you can, please state the reported MIC value of O=C(Nc1ccc(C(F)(F)F)cc1)c1cc(Br)ccc1O .
Result: 2.8

Request: If you can, please state the reported MIC value of NNC(=O)c1ccncc1 .
Result: 7.3

Request: If you can, please state the reported MIC value of O=C(Nc1ccc(Cl)c(Cl)c1)c1cc(Cl)ccc1O .
Result: 1.6

Request: If you can, please state the reported MIC value of C/C(=N\OCC(=O)N[C@H](C(=O)N[C@@H](CCCCN)C(=O)N1CCC[C@H]1C(=O)N[C@@H](CCCNC(=N)N)C(=O)O)[C@@H](C)O)c1ccc(NC(=O)c2cc(Br)ccc2O)cc1 ({Benzoyl(5-Br-2-OH)}-[X1]TKPR-OH) .
Result: 112

----------
System: Mycobacterium tuberculosis
measurement notes: Antimycobacterial activity against isoniazid and rifampicin resistant Mycobacterium tuberculosis A8 ATCC 35822 assessed as reduction in bacterial growth after 28 days by serial dilution method
Assay type: functional
setup conditions: A8 ATCC 35822, 672 h, time 28 day
*1 amine or outer side, *2 acyl side, *3 side chain or, on linkers, in order; H or OH if unused. Where a SMILES comes first, the peptide text is derived from it. [ ]: non-standard residue; d: D form. The star is where a group is joined. X1 = C/C(=N\OCC(=O)[*:2])c1ccc(N[*:1])cc1; Benzoyl(5-Br-2-OH) = O=C(c1cc(Br)ccc1O)*
Lab note: anything with MIC below 60 µM is marked True; values at 60 µM or higher are marked False.

Solved cases (4 shown):
>  <compound>
C/C(=N\OCC(=O)N[C@H](C(=O)N[C@@H](CCCCN)C(=O)N1CCC[C@H]1C(=O)N[C@@H](CCCCN)C(=O)NCC(=O)O)[C@@H](C)O)c1ccc(NC(=O)c2cc(Br)ccc2O)cc1 ({Benzoyl(5-Br-2-OH)}-[X1]TKPKG-OH)

>  <assigned label>
False

$$$$
>  <compound>
C/C(=N\OCC(=O)NCC(=O)N[C@@H](Cc1ccccc1)C(=O)N[C@@H](CC(C)C)C(=O)NCC(=O)N[C@H](C(=O)N[C@@H](CCCCN)C(=O)N1CCC[C@H]1C(=O)N[C@@H](CCCCN)C(=O)NCC(=O)O)[C@@H](C)O)c1ccc(NC(=O)c2cc(Br)ccc2O)cc1 ({Benzoyl(5-Br-2-OH)}-[X1]GFLGTKPKG-OH)

>  <assigned label>
False

$$$$
>  <compound>
O=C(Nc1ccc(Cl)c(Cl)c1)c1cc(Br)ccc1O

>  <assigned label>
True

$$$$
>  <compound>
C/C(=N\OCC(=O)NCC(=O)N[C@@H](Cc1ccccc1)C(=O)N[C@@H](CC(C)C)C(=O)NCC(=O)N[C@H](C(=O)N[C@@H](CCCCN)C(=O)N1CCC[C@H]1C(=O)N[C@@H](CCCNC(=N)N)C(=O)O)[C@@H](C)O)c1ccc(NC(=O)c2cc(Br)ccc2O)cc1

>  <assigned label>
False

$$$$

Request: Please determine if O=Cc1ccc(O)c(C(=O)Nc2ccc(C(F)(F)F)cc2)c1 is below 60 µM in terms of MIC.
Result: False

Values compiled from ChEMBL document CHEMBL5252539.
